Values compiled from the RNAGym collection of RNA variant scans (doi:10.1093/molbev/msab373).

B1: Azoarcus group I ribozyme (parent)
chain: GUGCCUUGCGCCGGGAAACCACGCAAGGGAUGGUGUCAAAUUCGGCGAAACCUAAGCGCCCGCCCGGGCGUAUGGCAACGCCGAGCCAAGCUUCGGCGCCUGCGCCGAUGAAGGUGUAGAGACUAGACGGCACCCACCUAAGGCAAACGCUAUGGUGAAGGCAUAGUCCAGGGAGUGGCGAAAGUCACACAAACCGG

Variants of: B1
assay.comment: reverse-splicing fitness (ratio to wild type); higher = more active; in vitro selection; Mg2+ level not given
Provide the reported reverse-splicing fitness of each item.
Numbers only.

Recorded results for 4 variants are shown here.
C82U A111G A120U A145U C150U C169U U176C    0.00261
A111U A145G C150G C169G U176A    0.00998
A111U A145G U176G    0.267
C82G A111G A120C A145C C150U C169A U176C    0.00829

I would be grateful if you could provide reverse-splicing fitness for each of the following entries.
1. C82A A111U A120U C150A C169U U176A
2. C82A A111C C150A C169A U176G
3. C82U A111C A120U A145U C150A C169A U176G
4. C82G A145G C150A C169U
5. C82A A120C A145U C150U C169A U176C
6. A111C A120C C150A C169A U176A

## Output
0.00587
0.00857
0.00255
0.0106
0.0134
0.0162
